Tested on: Escherichia coli
Assay: Antibacterial activity against Escherichia coli after 24 hrs by tube dilution method
Type: functional
outcomeMeasure: -logMIC

Cc1ccc(C(=O)N/N=C/c2cccc([N+](=O)[O-])c2)cc1; 2.47
COc1ccc(/C=N/NC(=O)c2ccc(OC)c(OC)c2)cc1OC; 2.64
COc1ccc(/C=N/NC(=O)c2cc([N+](=O)[O-])ccc2Cl)cc1OC; 2.67

I have this molecule here, Nc1ccc(C(=O)N/N=C/c2cccc([N+](=O)[O-])c2)cc1 , and I need its recorded -logMIC.
2.56
